All values here come from patent US20240247080A1.

- test_system: T1, NPY2 receptor (human (printed as hNPY2R), UniProt P49146 1-381)
- T1 sequence (looked up): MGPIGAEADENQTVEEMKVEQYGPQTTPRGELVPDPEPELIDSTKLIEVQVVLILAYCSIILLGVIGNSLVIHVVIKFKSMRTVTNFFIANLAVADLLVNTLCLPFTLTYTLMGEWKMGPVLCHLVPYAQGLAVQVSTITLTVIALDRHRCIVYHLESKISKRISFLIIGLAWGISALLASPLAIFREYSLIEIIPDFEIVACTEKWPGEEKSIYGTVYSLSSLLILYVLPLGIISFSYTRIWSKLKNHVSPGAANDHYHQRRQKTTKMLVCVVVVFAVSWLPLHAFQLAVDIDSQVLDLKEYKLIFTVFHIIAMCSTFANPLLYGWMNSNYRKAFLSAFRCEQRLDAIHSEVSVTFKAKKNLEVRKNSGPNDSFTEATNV
- assay_name: cell-based or functional assay
Starred links: 1 amine or outer side, 2 acyl side, 3 side chain; linkers in the order of their positions; H or OH if unused. Non-standard residues stand in square brackets, D forms with d. Groups on a side chain read outwards from the residue. No end group written: not given here. *: point of attachment. C20 diacid = O=C(O)CCCCCCCCCCCCCCCCCCC(=O)*; γGlu = O=C(O)[C@H](CCC(=O)[*:2])N[*:1]; AEEA = NCCOCCOCC(=O)O; Aib = CC(C)(N)C(=O)O
Lab note: anything with EC50 hNPY2R 100% hP (CreLuc) below 50 nM is marked TRUE; values at 50 nM or higher are marked FALSE.

• Y[Aib]EGTFTSDYSI[Aib]LEKQAQ[Aib]AFIEWLIK([AEEA-AEEA-γGlu-γGlu-γGlu-γGlu-C20 diacid])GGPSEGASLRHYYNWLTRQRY-NH2 (also: TFA salt) [Compound 231] = FALSE
• YXEGTFTSDYSIXLEKQAQXAFVEWLIKGGPSSGALLRHYYNWLTRQRY (Aib at 2, 13, 20; K28 side chain carries C20DA-gGlu-gGlu-gGlu-gGlu-gGlu-gGlu-eLys; C-terminal amide) [Compound 197] = FALSE
• Y[Aib]EGTFTSDYSI[Aib]LEKQAQ[Aib]AFVEWLIKGGPSSGVSLRHYYNWLTRQRY-NH2 (not fully specified (residue 28); also: TFA salt) [Compound 212] = FALSE
• Y[Aib]EGTFTSDYSI[Aib]LEKQAQ[Aib]AFVQWLIK([AEEA-AEEA-Glu-Glu-Glu-Glu-C20 diacid])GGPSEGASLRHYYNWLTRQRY-NH2 (also: TFA salt) [Compound 239] = FALSE
• YXEGTFTSDYSIXLEKQAQXAFVEWLIKGGPSEYVSLRHYYNWLTRQRY (Aib at 2, 13, 20; K28 side chain carries C20DA-gGlu-gGlu-gGlu-gGlu-gGlu-gGlu-eLys; C-terminal amide) [Compound 217] = TRUE
• YXEGTFTSDYSIXLEKQAQXAFVEWLIKGGPSYGASLRHYYNWLTRQRY (Aib at 2, 13, 20; K28 side chain carries C20DA-gGlu-gGlu-gGlu-gGlu-gGlu-gGlu-eLys; C-terminal amide) [Compound 232] = TRUE
• YXEGTFTSDYSIXLEKQAQXAFVEWLIKGGPSSGASLRHYYNWLTRXRY (Aib at 2, 13, 20; bHGln (beta-homo-L-glutamine) at 47; K28 side chain carries C20DA-gGlu-gGlu-gGlu-gGlu-gGlu-gGlu-eLys; C-terminal amide) [Compound 208] = FALSE
• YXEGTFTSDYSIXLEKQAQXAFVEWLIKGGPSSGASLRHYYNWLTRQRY (Aib at 2, 13, 20; D-Tyr at 49; K28 side chain carries C20DA-gGlu-gGlu-gGlu-gGlu-gGlu-gGlu-eLys; C-terminal amide) [Compound 214] = FALSE
• YXEGTFTSDYSIXLELQAQXAFVEWLIKGGPSSGASLRHYYNWLTRQRY (Aib at 2, 13, 20; K28 side chain carries C20DA-gGlu-gGlu-gGlu-gGlu-gGlu-gGlu-eLys; C-terminal amide) [Compound 209] = FALSE
